// data source = patent US20250034594A1

System: gene editing with dCas9
Assay: Screen of 322 new SSAP proteins, gene editing activity with dCas9 (Table 5)
Assay type: cell-based
Settings: normalized
dCas9 with SSAP activity (normalized) overview
Endpoint Label: dCas9 with SSAP activity (normalized)

{"Molecule": "SSAP_183: SEQ ID NO: 352; Clostridium sp. CAG: 277 (protein, listed as Clostridium sp.) DFKEELAAKAEVAATTKKSDGVKLTKNMSIVDMIKALEPEIKRALPSVLTPERFVRMALTAVNNTPALAQCTPMSFIAALMNAAQLGLEPNTPLGQAYLIPYKNKKKGVVECQFQIGYKGMIDLVYRNDNVQTIQAHIVRENDHFEYELGLESKLRHIPAMEGRGEMMYVYALFKLTNGGYGFEVLNKEAVIAHAERYSPSYDGFSPWKTDFESKGLELFLILDLSSKQSGK", "Endpoint Value": "−0.615"}
{"Molecule": "SSAP_314: SEQ ID NO: 483; Ferrimonas kyonanensis (protein, listed as Ferrimonas kyonanensis) NQMINEPDFVTALKDSRETYIDLTQNGGFNLNYGLEAGWAHQQIEASRYQNLDLTCSEPGSIMQAFCEAARLGLSFDPRKKHIYLMGQKDVQSGRTITILYVGYKGMIALACRTGFMIGGHADLVFEEDTFTYRSGTQLPVHEHDGRPNHERGRLKCGYVVAHQPGGMVKTLLVPKEVLLEAASNGLNAGGSNNTWCGPYMEMMYQKTCWRYAFNAWYSELEAVGMTQAQLESATTAVSYQ", "Endpoint Value": "−0.657"}
